From: patent US4593090A

Parameter: LD50 at 720 h. Scope: all listed entries.
protocol-description: Acute toxicity (LD50, Behrens-Karber method)
Type: in vivo, ICR mice
condition-details: mouse, in vivo, ip, mortality during 30 days
Output spec: scalar in mg/kg, unitless text.

In the examples that follow, each entry is paired with its recorded LD50 at 720 h.
{"molecule": "CCCCCCO[C@H]1O[C@H](CN(C(=O)N(CCCl)N=O)C(C)COC)[C@@H](O)[C@H](O)[C@H]1O (stereo partly shown)", "u": "mg/kg", "LD50 at 720 h": 505}
{"molecule": "CC=CCO[C@H]1O[C@H](CN(CC(C)C)C(=O)N(CCCl)N=O)[C@@H](O)[C@H](O)[C@H]1O", "u": "mg/kg", "LD50 at 720 h": 410}
{"molecule": "CC(C)CN(C(=O)N(CCCl)N=O)C1C(OC2CCCCC2)OC(CO)C(O)C1O (stereo not shown)", "u": "mg/kg", "LD50 at 720 h": 670}

Identify the reported LD50 at 720 h for the following entry. `CCN(C(=O)N(CCCl)N=O)[C@H]1[C@@H](OCC(C)C)O[C@H](CO)[C@H](O)[C@@H]1O`
480

Tell me measured LD50 at 720 h for COCC(C)OC1OC(CO)C(O)C(O)C1N(CC(C)C)C(=O)N(CCCl)N=O (stereo not shown) please.
645

Quote LD50 at 720 h reported for `COCCCN(C[C@H]1O[C@H](OCC(C)C)[C@@H](O)[C@@H](O)[C@H]1O)C(=O)N(CCCl)N=O` please.
595

Give LD50 at 720 h for the following molecule: `Cc1ccc(CN(C[C@H]2O[C@H](OCC(C)C)[C@H](O)[C@@H](O)[C@H]2O)C(=O)N(CCCl)N=O)cc1`
600
